test: Pharmacokinetic study in rats after oral administration of MOL extract; type: in vivo, Sprague-Dawley rats; conditions: male, Sprague-Dawley, rat, plasma, po, 30 g/kg
PARAMETER_MEASURED: half-life (h)
Answer in h, number only, no unit symbol.

Problem: Record request: half-life value, item O=C(/C=C/c1ccc(O)c(O)c1)O[C@@H]1C[C@](O)(C(=O)O)C[C@@H](O)[C@H]1O
Result: 5.06
